target-desc: HePTP (Homo sapiens)
Sequence (P35236 1-360): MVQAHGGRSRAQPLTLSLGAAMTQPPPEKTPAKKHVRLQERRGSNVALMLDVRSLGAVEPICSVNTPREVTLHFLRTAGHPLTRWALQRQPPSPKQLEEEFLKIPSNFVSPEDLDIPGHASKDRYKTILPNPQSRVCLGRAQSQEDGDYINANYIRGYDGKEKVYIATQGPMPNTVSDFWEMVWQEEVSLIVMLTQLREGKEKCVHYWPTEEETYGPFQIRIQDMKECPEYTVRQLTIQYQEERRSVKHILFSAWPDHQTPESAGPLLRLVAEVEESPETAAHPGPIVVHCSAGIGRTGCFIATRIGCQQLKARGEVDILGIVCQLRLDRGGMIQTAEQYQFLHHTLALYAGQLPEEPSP
Counter-ions that a name gives are not always drawn.
Entries whose IC50 is below 1000 nM take TRUE; entries at or above 1000 nM take FALSE.

Example results:
Please indicate whether the reported IC50 of O=C(O)c1cccc(-n2cccc2/C=N/O)c1 is strictly below 1000 nM.
FALSE

Please indicate whether the reported IC50 of CC1(C)CCCN(C(=O)c2coc(=O)c(Br)c2)C1 is strictly below 1000 nM.
TRUE

Please indicate whether the reported IC50 of CCn1c(SCC(=O)O)nc2c(c1=O)C1=C(CCC1)C2 is strictly below 1000 nM.
FALSE

Please indicate whether the reported IC50 of CC(=O)OCC1=C(C(=O)[O-])N2C(=O)[C@H](NC(=O)Cc3cccs3)[C@H]2SC1.[Na+] is strictly below 1000 nM.
TRUE

Please indicate whether the reported IC50 of O=C(O)c1c[nH]c2ccc(S(=O)(=O)N3CCN(c4ccc(F)cc4)CC3)cc2c1=O is strictly below 1000 nM.
FALSE

Next:
Please indicate whether the reported IC50 of COc1cccc(C(=O)NC2CC3CCCC(C2)N3CC(=O)Nc2ccccc2)c1 (centres unmarked) [hydrochloride] is strictly below 1000 nM.
FALSE

Please indicate whether the reported IC50 of O=C(O)c1cc(O)c2c(c1)C(=O)c1cccc(O)c1C2=O is strictly below 1000 nM.
FALSE

Please indicate whether the reported IC50 of COc1ccc(Cc2nnc(NC(=O)Cc3cccs3)s2)cc1 is strictly below 1000 nM.
FALSE

Please indicate whether the reported IC50 of O=C(O)C(O)c1ccco1 (centres unmarked) [2-(2-Furyl)-2-hydroxy-acetic acid] is strictly below 1000 nM.
FALSE

Please indicate whether the reported IC50 of Cc1ccc(C)n1C(Cc1ccccc1)C(=O)O (centres unmarked) is strictly below 1000 nM.
TRUE

---

target-desc: HePTP (Homo sapiens, UniProt P35236)
experimental-protocol: HePTP dose-response confirmation screening
Format: biochemical
run-conditions: Hill coefficient of the dose-response curve
attribute-measured: n / nH (Hill coefficient)
Number only, no unit.

Please review the entries below; each comes with its answer.
n / nH (Hill coefficient) recorded for this molecule, c1ccc(CSc2nnc(-c3ccco3)c(-c3ccco3)n2)cc1 , is 1.32

n / nH (Hill coefficient) recorded for this molecule, Cc1ccc2c(c1)C1C=CCC1C(C(=O)O)N2 (stereo not shown) , is 2.41

n / nH (Hill coefficient) recorded for this molecule, O=C(O)c1cc(O)c2c(c1)C(=O)c1cccc(O)c1C2=O , is 0.76

n / nH (Hill coefficient) recorded for this molecule, Cc1c(N2C(=O)c3ccc4c5c(ccc(c35)C2=O)CC4)c(=O)n(-c2ccccc2)n1C , is 2.23

n / nH (Hill coefficient) recorded for this molecule, O=C(O)c1c[nH]c2ccc(S(=O)(=O)N3CCN(c4ccc(F)cc4)CC3)cc2c1=O , is 2.66

n / nH (Hill coefficient) recorded for this molecule, COc1ccc2c(c1)=CC(=C1N=C(c3ccccc3)ON1)C(=O)N=2 (stereo in doubt) , is 4.29

n / nH (Hill coefficient) recorded for this molecule, COc1ccc2c(c1)=CC(=C1N=C(c3ccc(F)cc3)ON1)C(=O)N=2 (stereo in doubt) , is 2.73

n / nH (Hill coefficient) recorded for this molecule, Cc1nnc2sc(-c3ccc(NC(=O)c4ccc(-c5ccc(Cl)cc5Cl)o4)cc3)nn12 , is 1.94

n / nH (Hill coefficient) recorded for this molecule, O=C1Nc2ccccc2SC(c2ccccc2)C1O (stereo not shown) , is 2.13

Next:
n / nH (Hill coefficient) recorded for this molecule, CCOC(=O)C1CCN(C(=O)Nc2ccc3nc(-c4ccco4)c(-c4ccco4)nc3c2)CC1 , is 1.95
